Values were extracted from ChEMBL document CHEMBL5380849.

target: Sodium- and chloride-dependent GABA transporter 1 (Mus musculus); test: Inhibition of mouse GAT1 expressed in HEK293 cells assessed as inhibition of [3H]GABA uptake

- TEST SMILES: "O=C(O)C1=CCCN(COC/N=C/c2ccccc2-c2ccc(Cl)cc2Cl)C1"
  SYSTEM UNDER TEST: "Sodium- and chloride-dependent GABA transporter 1 (Mus musculus)"
  IC50 [nM]: 5.25

###

molecular target: Sodium channel protein type 2 subunit alpha (Homo sapiens, UniProt Q99250); experiment: Inhibition of human Nav1.2 expressed in CHO cells by whole-cell patch clamp assay
Sequence (Q99250 whole entry): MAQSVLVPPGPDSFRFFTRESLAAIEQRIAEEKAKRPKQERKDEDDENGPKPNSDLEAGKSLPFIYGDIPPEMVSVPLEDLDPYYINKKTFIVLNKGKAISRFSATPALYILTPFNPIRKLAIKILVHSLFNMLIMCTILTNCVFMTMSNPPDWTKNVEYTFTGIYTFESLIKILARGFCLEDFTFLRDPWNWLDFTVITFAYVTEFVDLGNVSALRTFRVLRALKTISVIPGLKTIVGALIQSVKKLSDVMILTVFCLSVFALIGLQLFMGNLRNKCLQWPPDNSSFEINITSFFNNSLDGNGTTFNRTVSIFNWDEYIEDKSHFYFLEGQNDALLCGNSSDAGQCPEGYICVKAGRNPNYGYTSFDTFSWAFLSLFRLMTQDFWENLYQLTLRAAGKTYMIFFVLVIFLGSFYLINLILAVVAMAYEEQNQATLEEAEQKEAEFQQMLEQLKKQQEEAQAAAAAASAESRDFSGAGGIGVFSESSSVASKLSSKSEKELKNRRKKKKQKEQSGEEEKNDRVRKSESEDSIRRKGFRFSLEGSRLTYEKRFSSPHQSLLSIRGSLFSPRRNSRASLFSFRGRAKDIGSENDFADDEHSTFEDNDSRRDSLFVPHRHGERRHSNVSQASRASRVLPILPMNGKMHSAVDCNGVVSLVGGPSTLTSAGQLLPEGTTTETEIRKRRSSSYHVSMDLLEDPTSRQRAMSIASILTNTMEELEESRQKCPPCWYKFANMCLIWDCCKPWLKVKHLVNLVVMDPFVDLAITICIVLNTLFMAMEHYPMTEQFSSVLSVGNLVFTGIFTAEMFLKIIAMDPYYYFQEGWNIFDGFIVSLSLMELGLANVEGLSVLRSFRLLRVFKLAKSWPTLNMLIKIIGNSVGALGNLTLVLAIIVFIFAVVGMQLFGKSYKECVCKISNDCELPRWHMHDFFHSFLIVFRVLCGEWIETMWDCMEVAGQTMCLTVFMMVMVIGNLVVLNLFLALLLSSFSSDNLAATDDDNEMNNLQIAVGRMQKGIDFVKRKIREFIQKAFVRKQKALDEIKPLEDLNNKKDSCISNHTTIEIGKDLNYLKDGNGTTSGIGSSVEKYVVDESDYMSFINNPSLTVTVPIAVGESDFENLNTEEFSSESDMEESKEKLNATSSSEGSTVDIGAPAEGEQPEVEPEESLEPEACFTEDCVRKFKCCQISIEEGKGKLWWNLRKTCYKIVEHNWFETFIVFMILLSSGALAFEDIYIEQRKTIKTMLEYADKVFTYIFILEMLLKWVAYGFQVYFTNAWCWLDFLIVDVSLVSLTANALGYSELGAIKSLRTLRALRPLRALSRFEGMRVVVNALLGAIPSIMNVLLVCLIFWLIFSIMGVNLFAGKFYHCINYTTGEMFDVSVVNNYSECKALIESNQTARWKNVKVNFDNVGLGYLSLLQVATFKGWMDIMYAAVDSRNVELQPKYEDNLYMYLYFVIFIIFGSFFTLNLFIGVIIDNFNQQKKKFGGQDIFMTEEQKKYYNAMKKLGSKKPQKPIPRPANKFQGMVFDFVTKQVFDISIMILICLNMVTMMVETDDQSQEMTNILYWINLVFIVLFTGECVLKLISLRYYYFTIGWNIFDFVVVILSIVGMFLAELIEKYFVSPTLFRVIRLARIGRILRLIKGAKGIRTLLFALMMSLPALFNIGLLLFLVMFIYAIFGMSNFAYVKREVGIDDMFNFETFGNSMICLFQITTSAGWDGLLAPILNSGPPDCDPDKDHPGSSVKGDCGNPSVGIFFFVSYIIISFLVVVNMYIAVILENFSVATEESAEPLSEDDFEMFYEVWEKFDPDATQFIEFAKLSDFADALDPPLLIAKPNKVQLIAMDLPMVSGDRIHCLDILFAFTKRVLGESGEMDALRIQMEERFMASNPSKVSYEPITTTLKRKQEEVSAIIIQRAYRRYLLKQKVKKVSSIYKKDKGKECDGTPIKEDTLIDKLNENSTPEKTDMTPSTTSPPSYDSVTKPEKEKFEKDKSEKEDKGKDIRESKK
pIC50: −log10 of the molar value.

- TEST SMILES: "Cc1cccc(C)c1OCCNCc1cc(C(C)(C)C)c(O)c(C(C)(C)C)c1"
  pIC50: 5.48

###

experiment: Inhibition of mouse GAT3 expressed in HEK293 cells assessed as inhibition of [3H]GABA uptake; assay type: cell-based
pIC50: −log10 of the molar value.

- COMPOUND: "Cc1ccc(CNC(=O)C(CCO)N(C)CCC=C2c3ccccc3CCc3ccccc32)cc1 (stereo unspecified)"
  pIC50: 4.90

###

test: in vivo; settings: mouse, brain and plasma, ip, 20 mg/kg
Description: Ratio of AUC in brain to plasma of fasted mouse at 20 mg/kg, ip measured upto 24 hrs by LC-MS analysis

- TEST SMILES: "CC(C)(C)CC(=O)Nc1ccc(NCc2ccc(C(F)(F)F)cc2)c(F)c1N"
  Kp at 24 h: 2.3

###

molecular target: Gamma-aminobutyric acid receptor subunit alpha-2 (Homo sapiens, UniProt P47869); assay: Positive allosteric modulation of GABAA alpha2 receptor (unknown origin) assessed as inhibition constant
Sequence (P47869 whole entry): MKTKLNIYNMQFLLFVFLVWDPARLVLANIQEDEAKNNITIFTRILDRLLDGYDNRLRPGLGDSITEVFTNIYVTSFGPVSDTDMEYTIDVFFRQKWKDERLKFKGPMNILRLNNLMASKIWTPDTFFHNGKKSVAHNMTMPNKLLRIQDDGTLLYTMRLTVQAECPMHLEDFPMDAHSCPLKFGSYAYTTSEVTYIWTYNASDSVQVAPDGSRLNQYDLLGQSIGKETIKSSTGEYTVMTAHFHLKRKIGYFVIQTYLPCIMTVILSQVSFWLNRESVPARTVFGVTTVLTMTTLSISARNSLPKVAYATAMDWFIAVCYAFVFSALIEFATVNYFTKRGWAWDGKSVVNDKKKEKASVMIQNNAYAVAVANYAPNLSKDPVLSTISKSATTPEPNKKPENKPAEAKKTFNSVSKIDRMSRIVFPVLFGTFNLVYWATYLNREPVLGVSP
pKi: −log10 of the molar value.
PARAMETER: pKi

- TEST SMILES: "C#Cc1ccc2c(c1)C(c1ccccn1)=NCc1c(-c3cnco3)ncn1-2"
  PARAMETER: "pKi"
  REPORTED VALUE: 6.93

###

target: GABA transporter 4 (Mus musculus); assay: Inhibition of mouse GAT4 expressed in HEK293 cells assessed as inhibition of [3H]GABA uptake
Sequence (P31650 whole entry): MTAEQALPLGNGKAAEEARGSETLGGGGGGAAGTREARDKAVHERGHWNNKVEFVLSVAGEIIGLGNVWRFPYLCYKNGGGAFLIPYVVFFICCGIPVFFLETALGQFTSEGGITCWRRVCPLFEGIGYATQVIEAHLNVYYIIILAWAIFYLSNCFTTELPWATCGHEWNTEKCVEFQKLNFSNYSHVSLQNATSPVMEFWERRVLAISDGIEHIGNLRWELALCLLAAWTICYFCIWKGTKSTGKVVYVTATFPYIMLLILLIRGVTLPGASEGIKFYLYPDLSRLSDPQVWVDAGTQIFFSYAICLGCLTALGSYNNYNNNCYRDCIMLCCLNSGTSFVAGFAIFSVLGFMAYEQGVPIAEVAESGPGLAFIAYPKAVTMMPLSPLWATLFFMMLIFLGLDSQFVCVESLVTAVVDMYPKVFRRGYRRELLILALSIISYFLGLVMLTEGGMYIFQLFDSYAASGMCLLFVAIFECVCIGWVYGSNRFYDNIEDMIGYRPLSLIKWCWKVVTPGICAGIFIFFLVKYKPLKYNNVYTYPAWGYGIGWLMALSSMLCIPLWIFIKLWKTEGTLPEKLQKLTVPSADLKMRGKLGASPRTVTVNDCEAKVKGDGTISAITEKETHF

- COMPOUND: "Cc1ccc(CNC(=O)C(CCO)N(C)CCC=C2c3ccccc3CCc3ccccc32)cc1 (stereo unspecified)"
  IC50 [µM]: 9.55
